B1: CPEB3 Ribozyme (parent)
chain: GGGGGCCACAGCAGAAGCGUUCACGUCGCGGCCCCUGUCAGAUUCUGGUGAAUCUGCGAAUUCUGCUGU

- Variants of: B1
- Assay overview: self-cleavage, relative activity (ratio to wild type); higher = more cleavage; co-transcriptional
Label fulfilled when self-cleavage is at or above 0.6; otherwise label not fulfilled.

   sequence_change  assigned_category
0        U21G G28C      not fulfilled
1        G25U G37A      not fulfilled
2        A16U G31U      not fulfilled
3        C12A G14A      not fulfilled
4         C9A U49A          fulfilled

Is it the case that G17U G19C has self-cleavage reaching or exceeding 0.6?
not fulfilled

Is it the case that C6A A59C has self-cleavage reaching or exceeding 0.6?
not fulfilled

Is it the case that G3U U20G has self-cleavage reaching or exceeding 0.6?
not fulfilled

Is it the case that A40C C63A has self-cleavage reaching or exceeding 0.6?
not fulfilled

Is it the case that U55A G65U has self-cleavage reaching or exceeding 0.6?
not fulfilled
